Tested on: Rattus norvegicus
Test: Clearance in Sprague-Dawley rat at 1 mg/kg, iv
Assay type: ADME, organism-based
Set-up: dose 1 mg/kg, route intravenous
Settings: in vivo

>  <line.notation>
Cc1nc2ccc(Oc3ccc(Cl)cc3F)nc2c(=O)n1C[C@H]1CCCN(C(C)C)C1

>  <clearance>
24 mL/min/kg

$$$$
>  <line.notation>
Cc1nc2ncc(Oc3ccc(F)cc3)nc2c(=O)n1C[C@H]1CCCN(C(C)C)C1

>  <clearance>
13 mL/min/kg

$$$$
>  <line.notation>
Cc1nc2ccc(Oc3ccc(F)cc3)nc2c(=O)n1C[C@H]1CCCN(C(C)C)C1

>  <clearance>
32 mL/min/kg

$$$$

###

Molecular target: Voltage-gated inwardly rectifying potassium channel KCNH2 (Homo sapiens, UniProt Q12809)
Sequence (Q12809 whole entry): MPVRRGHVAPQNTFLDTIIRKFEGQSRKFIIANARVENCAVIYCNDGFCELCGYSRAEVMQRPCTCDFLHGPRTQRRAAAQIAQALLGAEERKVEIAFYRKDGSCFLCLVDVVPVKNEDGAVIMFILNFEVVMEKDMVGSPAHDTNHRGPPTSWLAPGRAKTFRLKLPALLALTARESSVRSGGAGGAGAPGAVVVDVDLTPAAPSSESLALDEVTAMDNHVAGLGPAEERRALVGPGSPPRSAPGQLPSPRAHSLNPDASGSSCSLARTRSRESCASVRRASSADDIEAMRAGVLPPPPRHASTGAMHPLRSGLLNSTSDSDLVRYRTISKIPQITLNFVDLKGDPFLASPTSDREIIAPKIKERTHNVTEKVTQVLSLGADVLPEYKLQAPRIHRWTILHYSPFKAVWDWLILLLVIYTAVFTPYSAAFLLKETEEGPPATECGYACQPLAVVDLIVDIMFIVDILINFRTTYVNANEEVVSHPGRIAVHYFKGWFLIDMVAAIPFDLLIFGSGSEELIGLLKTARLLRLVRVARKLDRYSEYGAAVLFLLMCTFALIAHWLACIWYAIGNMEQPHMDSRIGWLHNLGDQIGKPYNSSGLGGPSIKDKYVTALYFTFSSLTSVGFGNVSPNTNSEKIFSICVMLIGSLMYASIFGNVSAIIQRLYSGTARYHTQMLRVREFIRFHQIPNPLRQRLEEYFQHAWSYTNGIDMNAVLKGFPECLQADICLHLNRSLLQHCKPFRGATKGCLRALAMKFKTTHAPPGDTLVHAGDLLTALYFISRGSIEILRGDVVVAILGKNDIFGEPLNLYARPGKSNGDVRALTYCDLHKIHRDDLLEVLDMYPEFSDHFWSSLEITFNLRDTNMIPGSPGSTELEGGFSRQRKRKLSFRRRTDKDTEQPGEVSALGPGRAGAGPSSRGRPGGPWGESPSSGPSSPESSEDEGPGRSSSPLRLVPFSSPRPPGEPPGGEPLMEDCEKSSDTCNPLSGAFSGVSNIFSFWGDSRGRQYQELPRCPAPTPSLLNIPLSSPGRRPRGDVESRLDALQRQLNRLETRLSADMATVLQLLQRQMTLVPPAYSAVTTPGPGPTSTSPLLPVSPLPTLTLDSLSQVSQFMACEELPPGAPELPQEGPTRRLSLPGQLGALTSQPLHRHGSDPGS
Assay: Inhibition of human Erg by patch clamp assay
pIC50: −log10 of the molar value.
pIC50 of 6 or higher: true (1). Under 6: false (0).

>  <line.notation>
Cc1nc2ncc(Oc3ccc(F)c4cccnc34)nc2c(=O)n1C[C@H]1CCCN(C(C)C)C1

>  <assigned.category>
false (0)

$$$$
>  <line.notation>
Cc1nc2cnc(Oc3ccc4ncsc4c3)cc2c(=O)n1C[C@H]1CCCN(C(C)C)C1

>  <assigned.category>
false (0)

$$$$
>  <line.notation>
Cc1nc2cnc(Oc3ccc(F)c4cccnc34)cc2c(=O)n1C[C@H]1CCCN(C(C)C)C1

>  <assigned.category>
false (0)

$$$$
>  <line.notation>
Cc1nc2cnc(Oc3cccc4cccnc34)cc2c(=O)n1C[C@H]1CCCN(C(C)C)C1

>  <assigned.category>
false (0)

$$$$
>  <line.notation>
Cc1nc2ccc(Oc3ccc(F)c4cccnc34)nc2c(=O)n1C[C@H]1CCCN(C(C)C)C1

>  <assigned.category>
true (1)

$$$$
>  <line.notation>
Cc1nc2cnc(Oc3ccc(Cl)cc3F)cc2c(=O)n1C[C@H]1CCCN(C(C)C)C1

>  <assigned.category>
true (1)

$$$$
